Where a SMILES comes first, the peptide text is derived from it. [ ]: non-standard residue; d: D form. The star is where a group is joined. Palmitoyl = CCCCCCCCCCCCCCCC(=O)*; hPhe = N[C@@H](CCc1ccccc1)C(=O)O
Answer each item with its documented IC50.

Exam item: Give reported IC50 for CCCCCCCCCCCCCCCC(=O)N[C@@H](CCCNC(=N)N)C(=O)N[C@@H](C)C(=O)N[C@@H](CCc1ccccc1)C(N)=O [compound 51] (Palmitoyl-Arg-Ala-[hPhe]-NH2) (ZIKA protease (Zika virus, UniProt Q32ZE1))
Marked response: ≤ 25 µM

Exam item: Lab note: record IC50 of CC(=O)N[C@@H](C)C(=O)N[C@@H](CCCNC(=N)N)C(=O)N[C@@H](CCC(N)=O)C(=O)N[C@@H](CCCCN)B(O)O tested on ZIKA protease (Zika virus, UniProt Q32ZE1).
Sequence (Q32ZE1 1499-1676): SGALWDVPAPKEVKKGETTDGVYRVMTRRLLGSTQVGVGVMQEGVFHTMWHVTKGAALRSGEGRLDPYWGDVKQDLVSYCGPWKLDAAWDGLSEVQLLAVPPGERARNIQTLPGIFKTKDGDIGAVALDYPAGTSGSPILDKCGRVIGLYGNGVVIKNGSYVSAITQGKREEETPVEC
Sequence (Q32ZE1 1421-1460): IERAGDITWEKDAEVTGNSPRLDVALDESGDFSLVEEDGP
Marked response: ≤ 25 µM

Exam item: Under ZIKA protease (Zika virus, UniProt Q32ZE1): report IC50 of CCCCCCCCCCCCCCCC(=O)N[C@@H](CCCCN)C(=O)N[C@@H](C)C(=O)N[C@@H](Cc1cnc[nH]1)C(N)=O [compound 167] (Palmitoyl-Lys-Ala-His-NH2) .
Marked response: ≤ 25 µM

Exam item: Provide IC50, system ZIKA protease (Zika virus, UniProt Q32ZE1), entry CCCCCCCCCCCCCCCC(=O)N[C@H](C)C(=O)N1C[C@H](Oc2ccncc2)C[C@H]1C(=O)N[C@H](C)C(=O)N[C@H](CCCCN)C(N)=O
Marked response: ≤ 25 µM

Exam item: Report the value of IC50 obtained on ZIKA protease (Zika virus, UniProt Q32ZE1) for CCCCCCCCCCCCCCCC(=O)N[C@@H](CCCCN)C(=O)N[C@@H](C)C(=O)N[C@@H](C)C(=O)N[C@H](Cc1c[nH]cn1)C(N)=O [compound 171] (Palmitoyl-KAA[dH]-NH2) .
Marked response: ≤ 25 µM

---

target: DENV protease (Dengue virus type 2, UniProt P29990); construct: The virus-encoded dengue protease comprises the amino-terminal 180 amino acids of NS3 (NS3pro) of the polyprotein; assay: biochemical; settings: at 1 μM; read-out: inhibition of DENV
Sequence (P29990 1398-1437): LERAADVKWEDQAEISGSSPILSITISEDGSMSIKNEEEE
Sequence (P29990 1476-1653): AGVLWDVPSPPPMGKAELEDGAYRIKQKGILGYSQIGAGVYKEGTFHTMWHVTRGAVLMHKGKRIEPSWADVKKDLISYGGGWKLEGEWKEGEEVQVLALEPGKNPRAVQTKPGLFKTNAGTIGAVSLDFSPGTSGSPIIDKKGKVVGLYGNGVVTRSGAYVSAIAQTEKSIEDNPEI
Where a SMILES comes first, the peptide text is derived from it. [ ]: non-standard residue; d: D form. The star is where a group is joined. Palmitoyl = CCCCCCCCCCCCCCCC(=O)*
Give inhibition at 1 µM for every item shown.

Exam item: Given CCCCCCCCCCCCCCCC(=O)N[C@@H](CCCCN)C(=O)N[C@@H](C)C(=O)N[C@@H](C)C(=O)N[C@@H](CCc1c[nH]cn1)C(N)=O [compound 172] , report its inhibition at 1 µM on DENV protease (Dengue virus type 2, UniProt P29990).
Marked response: ≥ 20%

Exam item: Report inhibition at 1 µM under test system DENV protease (Dengue virus type 2, UniProt P29990) for CCCCCCCCCCCCCCCC(=O)N[C@@H](CCCNC(=N)N)C(=O)N[C@@H](CCC(N)=O)C(=O)N[C@H](Cc1ccccc1)C(N)=O [compound 49] (Palmitoyl-Arg-Gln-[dF]-NH2) .
Marked response: ≥ 20%

Exam item: Report measured inhibition at 1 µM on DENV protease (Dengue virus type 2, UniProt P29990); entry: CC(=O)N[C@@H](C)C(=O)N[C@@H](CCCNC(=N)N)C(=O)N[C@@H](CCC(N)=O)C(=O)N[C@@H](CCCCN)B(O)O [compound 48]
Marked response: ≥ 20%

---

target: DENV protease (Dengue virus type 2, UniProt P29990); construct: The virus-encoded dengue protease comprises the amino-terminal 180 amino acids of NS3 (NS3pro) of the polyprotein; assay: biochemical; conditions: at 50 μM; read-out: inhibition of DENV
Where a SMILES comes first, the peptide text is derived from it. [ ]: non-standard residue; d: D form. The star is where a group is joined. Palmitoyl = CCCCCCCCCCCCCCCC(=O)*; β3hK = NCCCC[C@H](N)CC(=O)O
property-label: inhibition at 50 µM

Exam item: Return inhibition at 50 µM (reported value) for this compound: CCCCCCCCCCCCCCCC(=O)N[C@@H](CCCCN)C(=O)N[C@@H](C)C(=O)N[C@@H](CCCCN)C(=O)C(N)=O [compound 176]
Marked response: ≥ 25%

Exam item: Given CCCCCCCCCCCCCCCC(=O)N[C@@H](CCCCN)C(=O)N1CCC[C@H]1C(=O)N[C@@H](C)C(=O)N[C@@H](CCc1ccccc1)C(=O)C(N)=O [compound 6] , respond with its inhibition at 50 µM.
Marked response: ≥ 25%

Exam item: Tell me inhibition at 50 µM reported for CCCCCCCCCCCCCCCC(=O)N[C@@H](CCCCN)C(=O)N[C@@H](C)C(=O)N[C@@H](C)C(=O)N[C@@H](CCCCN)C(=O)C(N)=O [compound 9]
Marked response: ≥ 25%

Exam item: Write down inhibition at 50 µM measured for item CCCCCCCCCCCCCCCC(=O)N[C@@H](CCCc1c[nH]c(N)n1)C(=O)N[C@@H](CCC(N)=O)C(=O)N[C@@H](Cc1ccccc1)C(N)=O [compound 56]
Marked response: ≥ 25%

Exam item: Using the record for CCCCCCCCCCCCCCCC(=O)N[C@@H](CCc1c[nH]cn1)C(=O)N[C@@H](CCC(N)=O)C(=O)N[C@@H](Cc1ccccc1)C(N)=O [compound 59] , state its measured inhibition at 50 µM.
Marked response: ≥ 25%

Exam item: Please report inhibition at 50 µM for the following compound: CCCCCCCCCCCCCCCC(=O)N[C@@H](CCCCN)CC(=O)N[C@@H](C)C(=O)N[C@@H](C)C(=O)N[C@@H](CCCCN)C(N)=O [compound 82] (Palmitoyl-[β3hK]AAK-NH2)
Marked response: ≥ 25%

---

molecular target: DENV protease (Dengue virus type 2); construct: The virus-encoded dengue protease comprises the amino-terminal 180 amino acids of NS3 (NS3pro) of the polyprotein; assay: biochemical; conditions: at 50 μM; read-out: inhibition of DENV
Kindly state inhibition at 50 µM for each of the entries shown.

Exam item: Kindly indicate its recorded inhibition at 50 µM. Item: CCCCCCCCCCCCCCCC(=O)N[C@@H](CCCCN)C(=O)N[C@@H](C)C(=O)N[C@@H](CCCCN)C(=O)N(C)OC
Marked response: ≥ 25%

Exam item: Given the compound CCCCCCCCCCCCCCCC(=O)N[C@@H](CCCCN)C(=O)N1CCC[C@H]1C(=O)N[C@@H](C)C(=O)N[C@@H](CCCCN)C(=O)NS(=O)(=O)C1CC1 , write its reported inhibition at 50 µM.
Marked response: ≥ 25%

Exam item: Identify measured inhibition at 50 µM associated with CCCCCCCCCCCCCCCC(=O)N[C@@H](CCCCN)C(=O)N[C@@H](C)C(=O)N[C@@H](C)C(=O)N[C@@H](CCCCN)C(=O)c1ccccc1
Marked response: ≥ 25%

---

Would you kindly list inhibition at 5 µM for each of these compounds?
target: human Thrombin (Homo sapiens); assay: Selectivity screening, human serine protease thrombin; assay type: biochemical; details: read-out: inhibition of human Thrombin

Exam item: Name the recorded inhibition at 5 µM of the compound listed here: CCCCCCCCCCCCCCCC(=O)N[C@@H](CCCCN)C(=O)N[C@@H](C)C(=O)N[C@@H](C)C(=O)N[C@@H](CCCCN)C(=O)c1ccccc1
Marked response: < 5%

Exam item: Return inhibition at 5 µM for the following compound: CCCCCCCCCCCCCCCC(=O)N[C@@H](CCCCN)C(=O)N[C@@H](C)C(=O)N[C@@H](CCCCN)C(=O)c1ccccc1
Marked response: < 5%

Exam item: Note down inhibition at 5 µM recorded for CCCCCCCCCCCCCCCC(=O)N[C@@H](CCCCN)C(=O)N[C@@H](C)C(=O)N[C@@H](C)C(=O)N[C@H](CCc1ccccc1)C(=O)C(N)=O
Marked response: < 5%

Exam item: Consider the compound CCCCCCCCCCCCCCCC(=O)N[C@@H](CCCCN)C(=O)N1CCC[C@H]1C(=O)N[C@@H](C)C(=O)N[C@@H](C(N)=O)c1ccc(OCc2ccccc2)cc1 . State its measured inhibition at 5 µM.
Marked response: < 5%

Exam item: Hello, please tell me recorded inhibition at 5 µM for this one: CCCCCCCCCCCCCCCC(=O)N[C@@H](CCCCN)C(=O)N[C@@H](C)C(=O)N[C@@H](C)C(=O)N[C@H](CCCCN)C(=O)c1ccccc1
Marked response: < 5%

Exam item: Look up and report measured inhibition at 5 µM for this entry: CCCCCCCCCCCCCCCC(=O)N[C@@H](CCCCN)C(=O)N1CCC[C@H]1C(=O)N[C@@H](C)C(=O)N[C@@H](CCc1ccccc1)C(=O)C(N)=O
Marked response: < 5%

---

target: UniProt:P07477; assay: Selectivity screening, human serine protease trypsin; format: biochemical; conditions: at 5 μM; read-out: inhibition of human Trypsin
Where a SMILES comes first, the peptide text is derived from it. [ ]: non-standard residue; d: D form. The star is where a group is joined. Palmitoyl = CCCCCCCCCCCCCCCC(=O)*; Phg = N[C@H](C(=O)O)c1ccccc1; Pip = O=C(O)[C@@H]1CCCCN1
property-label: inhibition at 5 µM

Exam item: State, in one line, measured inhibition at 5 µM of CCCCCCCCCCCCCCCC(=O)N[C@H](CCCCN)C(=O)N[C@@H](C)C(=O)N[C@@H](C)C(=O)N[C@@H](CCCCN)C(N)=O [compound 115] (Palmitoyl-[dK]AAK-NH2)
Marked response: < 10%

Exam item: Return reported inhibition at 5 µM. Input compound: CCCCCCCCCCCCCCCC(=O)N[C@@H](CCCCN)C(=O)N[C@@H](C)C(=O)N[C@@H](C)C(=O)N[C@@H](CCCCN)C(=O)O [compound 189] (Palmitoyl-KAAK-OH)
Marked response: < 10%

Exam item: Specify inhibition at 5 µM for CCCCCCCCCCCCCCCC(=O)N[C@@H](CCCCN)C(=O)N1CCCC[C@H]1C(=O)N[C@H](C(=O)N[C@@H](CCCCN)C(N)=O)c1ccccc1 [compound 16] (Palmitoyl-K[Pip][Phg]K-NH2) and stop.
Marked response: < 10%
